Assay: Metabolic stability in mouse liver microsomes (MLM)
Assay type: in vitro ADME
Settings: mouse, pooled mouse liver microsomes, pH 7.4, MLM (CD-1), NADPH
measurement label: half-life at 1 μM (min)
Numeric only. Scale: min

Q: State its half-life at 1 μM for this compound: CC[C@@H](C)NC(=O)[C@@H]1C=C2c3cccc4[nH]cc(c34)C[C@H]2N(C)C1
Ans: 39.9

Q: State its half-life at 1 μM for this compound: CCN(CC)C(=O)[C@@H]1C=C2c3cccc4[nH]cc(c34)C[C@H]2N(CCc2ccccc2OC)C1
Ans: 0.917

Q: State its half-life at 1 μM for this compound: CCCN1C[C@H](C(=O)N(CC)CC)C=C2c3cccc4[nH]cc(c34)C[C@H]21
Ans: 2.3

Q: State its half-life at 1 μM for this compound: CCC[C@@H](C)NC(=O)[C@@H]1C=C2c3cccc4[nH]cc(c34)C[C@H]2N(C)C1
Ans: 8.25

Q: State its half-life at 1 μM for this compound: CCCN1C[C@H](C(=O)NC(CC)CC)C=C2c3cccc4[nH]cc(c34)C[C@H]21
Ans: 0.6

Q: State its half-life at 1 μM for this compound: CCN(CC)C(=O)[C@@H]1C=C2c3cccc4[nH]cc(c34)C[C@H]2N(CCCF)C1
Ans: 2.67

Q: State its half-life at 1 μM for this compound: CCN(CC)C(=O)[C@@H]1C=C2c3cccc4[nH]cc(c34)C[C@H]2N(CCc2ccc(OC)cc2)C1
Ans: 1.9

Q: State its half-life at 1 μM for this compound: CCN(CC)C(=O)[C@@H]1C=C2c3cccc4[nH]cc(c34)C[C@H]2N(Cc2ccc(OC)cc2)C1
Ans: 7.2

Q: State its half-life at 1 μM for this compound: CCC(CC)NC(=O)[C@H]1C=C2c3cccc4[nH]cc(c34)C[C@H]2N(C)C1 [Int14a]
Ans: 1.7

Q: State its half-life at 1 μM for this compound: CCCN1C[C@@H](C(=O)N[C@H](C)CC)C=C2c3cccc4[nH]cc(c34)C[C@H]21
Ans: 0.6

Q: State its half-life at 1 μM for this compound: CCN(CC)C(=O)[C@@H]1C=C2c3cccc4[nH]cc(c34)C[C@H]2N(Cc2ccccn2)C1
Ans: 9.2

Q: State its half-life at 1 μM for this compound: CCN(CC)C(=O)[C@@H]1C=C2c3cccc4[nH]cc(c34)C[C@H]2N(CCC(F)(F)F)C1
Ans: 2.1

Q: State its half-life at 1 μM for this compound: CCC(CC)NC(=O)[C@@H]1C=C2c3cccc4[nH]cc(c34)C[C@H]2N(C)C1
Ans: 6.07

Q: State its half-life at 1 μM for this compound: CCC[C@@H](C)NC(=O)[C@@H]1C=C2c3cccc4[nH]cc(c34)C[C@H]2N(CCC)C1
Ans: 0.541

Q: State its half-life at 1 μM for this compound: CCN(CC)C(=O)[C@@H]1C=C2c3cccc4[nH]cc(c34)C[C@H]2N(CCc2ccccn2)C1
Ans: 1.8

Q: State its half-life at 1 μM for this compound: CCN(CC)C(=O)[C@@H]1C=C2c3cccc4[nH]cc(c34)C[C@H]2N(Cc2ccccc2O)C1
Ans: 1.3
